Biological target: UniProt:P30969
Sequence (P30969 1-327): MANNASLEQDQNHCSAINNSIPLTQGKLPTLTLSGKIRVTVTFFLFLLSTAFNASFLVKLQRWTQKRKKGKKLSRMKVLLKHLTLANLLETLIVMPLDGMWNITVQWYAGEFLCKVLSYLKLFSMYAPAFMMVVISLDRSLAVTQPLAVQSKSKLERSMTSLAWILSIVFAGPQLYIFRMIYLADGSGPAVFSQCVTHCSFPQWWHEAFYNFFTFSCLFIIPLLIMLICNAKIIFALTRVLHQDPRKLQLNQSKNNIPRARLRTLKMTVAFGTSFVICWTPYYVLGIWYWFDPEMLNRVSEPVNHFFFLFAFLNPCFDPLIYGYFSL
Test: Radioligand binding, 125I-GnRH-A, rat pituitary membranes
Set-up: membranes were prepared from rat pituitary; from tissue; host or cells: rat pituitary
Conditions: read-out: rGnRH IC50
pIC50: −log10 of the molar value.
Returns Satisfied if the recorded pIC50 is greater than or equal to 6, and Not satisfied otherwise.

Completed entries (count: 3):
COc1ccc(CNC(=O)c2ccc(Cc3cc4c(cc3C)C(C)(C)CCC4(C)C)o2)cc1 | Satisfied
COc1cccc(OC)c1NC(=O)c1ccc(Cc2c(C)cc(C)c(Br)c2C)o1 | Satisfied
Cc1cc2c(cc1Cc1ccc(C(=O)NC3CCN(C(=O)OC(C)(C)C)C3)o1)C(C)(C)CCC2(C)C (stereo not drawn) | Not satisfied

API: the following record is the query input.
Could you tell me if the measured pIC50 of Cc1ccc(C(C)(C)C)cc1Cc1ccc(C(=O)NCc2cccc(CNc3ccnc(NC[C@H]4CCCO4)n3)c2)o1 reaches 6 or more? Satisfied

----------
Target: human GnRH receptor (Homo sapiens, UniProt P30968)
Construct: expressed in transfected cells; host or cells: HEK 293 (hGnRH-R/293, from Dr. Stuart Sealfon)
Sequence (P30968 1-328): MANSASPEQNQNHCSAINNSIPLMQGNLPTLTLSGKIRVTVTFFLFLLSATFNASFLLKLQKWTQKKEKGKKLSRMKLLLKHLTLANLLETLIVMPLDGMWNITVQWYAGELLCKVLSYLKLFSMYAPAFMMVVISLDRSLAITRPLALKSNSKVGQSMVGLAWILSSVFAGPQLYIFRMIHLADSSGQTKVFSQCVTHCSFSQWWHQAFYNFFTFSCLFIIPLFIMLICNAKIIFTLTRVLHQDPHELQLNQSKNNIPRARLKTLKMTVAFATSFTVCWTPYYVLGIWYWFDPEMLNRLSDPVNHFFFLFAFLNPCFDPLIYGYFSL
Test: Radioligand binding, 125I-GnRH-A displacement, membranes of HEK 293 cells with human GnRH receptor
Conditions: 1 uM; read-out: % Inhib. @ 1 uM hGnRH
Recorded measurements of inhibition at 1 µM, one per entry
Just the number please, in %, no unit attached.

COc1ccccc1CC(C)N(C)C(=O)c1ccc(Cc2cc3c(cc2C)C(C)(C)CCC3(C)C)o1 (centres unmarked) | -7
Cc1cc2c(cc1Cc1ccc(C(=O)N3CCN(c4ccc(Cl)cc4)CC3)o1)C(C)(C)CCC2(C)C | -11
COc1cccc(CCNC(=O)c2ccc(Cc3cc4c(cc3C)C(C)(C)CCC4(C)C)o2)c1OC [drawing 1147] | 58
Cc1cc2c(cc1Cc1ccc(C(=O)NCc3cccc(Cl)c3Cl)o1)C(C)(C)CCC2(C)C [drawing 1102] | 62
Cc1cc2c(cc1Cc1ccc(C(=O)NCc3cccc(Cl)c3)o1)C(C)(C)CCC2(C)C [drawing 1136] | 78
Cc1cc2c(cc1Cc1ccc(C(=O)NCc3ccccc3F)o1)C(C)(C)CCC2(C)C [drawing 1090] | 81
Cc1cc2c(cc1Cc1ccc(C(=O)NC3CCCCC3Cc3ccnc(NCC4CCCO4)n3)o1)C(C)(C)CCC2(C)C (centres unmarked) | 11
Cc1cc2c(cc1Cc1ccc(C(=O)NC3Cc4ccccc4C3)o1)C(C)(C)CCC2(C)C | 11

So what does the record say about inhibition at 1 µM for Cc1cc2c(cc1Cc1ccc(C(=O)NC(C)(C)Cc3ccccc3)o1)C(C)(C)CCC2(C)C ? 38

// query inhibition at 1 µM value for entry Cc1cc2c(cc1Cc1ccc(C(=O)NCCCN(C)CCCN)o1)C(C)(C)CCC2(C)C [drawing 1005] 13

Fill blank: measured inhibition at 1 µM of the compound Cc1cc2c(cc1Cc1ccc(C(=O)NC3CCCc4ccccc43)o1)C(C)(C)CCC2(C)C (centres unmarked) [drawing 1127] is ____. 14

----------
Target: mouse GnRH receptor (Mus musculus, UniProt Q01776)
Construct: expressed in transfected cells; host or cells: 293 cells
Sequence (Q01776 whole entry): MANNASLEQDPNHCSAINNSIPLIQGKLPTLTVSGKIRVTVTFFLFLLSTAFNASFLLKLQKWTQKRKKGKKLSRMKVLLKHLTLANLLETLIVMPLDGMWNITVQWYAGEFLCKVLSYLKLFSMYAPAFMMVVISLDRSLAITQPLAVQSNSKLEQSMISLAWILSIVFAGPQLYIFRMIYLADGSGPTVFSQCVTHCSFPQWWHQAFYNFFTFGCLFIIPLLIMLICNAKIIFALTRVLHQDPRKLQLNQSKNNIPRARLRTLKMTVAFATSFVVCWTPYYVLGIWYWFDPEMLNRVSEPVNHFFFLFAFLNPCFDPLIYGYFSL
Assay: Radioligand binding, 125I-GnRH-A, 293 cells expressing mouse GnRH receptors
Settings: 10 uM; read-out: % Inhib. @ 10 uM mGnRH
endpoint: inhibition at 10 µM

For orientation, consider the following solved cases.
Cc1cc2c(cc1Cc1ccc(C(=O)NCCCCCO)o1)C(C)(C)CCC2(C)C [drawing 1437] | 99%
Cc1cc2c(cc1Cc1ccc(C(=O)N3CCC(NC(=O)OC(C)(C)C)CC3)o1)C(C)(C)CCC2(C)C | 67%
Cc1cc2c(cc1Cc1ccc(C(=O)N(Cc3cccnc3)CC(C)c3ccccc3)o1)C(C)(C)CCC2(C)C (stereo not drawn) | 97%
CCOC(=O)CC(C)NC(=O)c1ccc(Cc2cc3c(cc2C)C(C)(C)CCC3(C)C)o1 (stereo not drawn) | 88%

Any idea what inhibition at 10 µM was measured for CCN(CC)CCN(CC)C(=O)c1ccc(Cc2cc3c(cc2C)C(C)(C)CCC3(C)C)o1 ? 98%

For the compound Cc1cc2c(cc1Cc1ccc(C(=O)N3CCCCC3C(=O)NC(c3ccccc3)c3ccccc3)o1)C(C)(C)CCC2(C)C (stereo not drawn) [drawing 1436] , what inhibition at 10 µM is on record? 43%

Give its inhibition at 10 µM value. Item: CSc1ccc(CN(CCc2ccccn2)C(=O)c2ccc(Cc3cc4c(cc3C)C(C)(C)CCC4(C)C)o2)cc1 75%

Can you share its inhibition at 10 µM? I mean this compound: Cc1cc2c(cc1Cc1ccc(C(=O)N3CCN(Cc4ccc(C(C)(C)C)cc4)CC3)o1)C(C)(C)CCC2(C)C [drawing 1534] 65%

Look up inhibition at 10 µM: Cc1cc2c(cc1Cc1ccc(C(=O)NC3CCN(Cc4ccccc4)C3)o1)C(C)(C)CCC2(C)C (stereo not drawn) [drawing 1243] 101%

----------
Molecular target: rat GnRH receptor (Rattus norvegicus, UniProt P30969)
Assay: Radioligand binding, 125I-GnRH-A, rat pituitary membranes
Design: membranes were prepared from rat pituitary; from tissue; host or cells: rat pituitary
Details: read-out: rGnRH IC50
endpoint: IC50 (µM)
Report only the number, with the unit µM understood.

# example entries with known answers
Cc1cc2c(cc1Cc1ccc(C(=O)NCC3CCNCC3)o1)C(C)(C)CCC2(C)C | 5.3
Cc1cc2c(cc1Cc1ccc(C(=O)NCc3cccc(CNc4ncccn4)c3)o1)C(C)(C)CCC2(C)C | 0.51
Cc1cc2c(cc1Cc1ccc(C(=O)Nc3cccc4ncccc34)o1)C(C)(C)CCC2(C)C | 0.06

State the recorded IC50 for this entry: Cc1cnc(CNC(=O)c2ccc(Cc3c(C)cc(C)c(Br)c3C)o2)cn1 5.61

Reported IC50, molecule Cc1cc2c(cc1Cc1ccc(C(=O)NCC3CCC(CNc4nccc(Cl)n4)CC3)o1)C(C)(C)CCC2(C)C (stereo not drawn) : ____ 5.47

Give the measured IC50 of Cc1cc2c(cc1Cc1ccc(C(=O)Nc3cccnc3)o1)C(C)(C)CCC2(C)C . 1.3

----------
Some molecules, each annotated with its measured Rat male pmol/min/mg 1 μM.
Experiment: Metabolism rate, pmol/min/mg at 1 μM, rat male
Assay type: in vitro ADME
Conditions: 1 μM compound
# value in pmol/min/mg; strip the unit string

In the examples that follow, each entry is paired with its recorded Rat male pmol/min/mg 1 μM.
Cc1cc2c(cc1Cc1ccc(C(=O)NCc3cccc(CNc4nccc(NCC5CCCO5)n4)c3)o1)C(C)(C)CCC2(C)C (stereo not shown) [Compound 70] | 2393
COc1cccc(OC)c1NC(=O)c1ccc(Cc2c(C)c(C)c(Br)c(C)c2C)o1 [Compound 226] | 990
COC(=O)c1ccc(OC)c(NC(=O)c2ccc(Cc3cc4c(cc3C)C(C)(C)CCC4(C)C)o2)c1 [Compound 72] | 4226
COc1cccc(OC)c1NC(=O)c1ccc(Cc2c(C)cc(C)c(Br)c2C)o1 [Compound 140] | 2521

For the molecule shown here, Cc1cc2c(cc1Cc1ccc(C(=O)Nc3ccc4[nH]ncc4c3)o1)C(C)(C)CCC2(C)C [Compound 109] , give the reported Rat male pmol/min/mg 1 μM. 1055

What measured Rat male pmol/min/mg 1 μM goes with Cc1ccc(C(C)(C)C)cc1Cc1ccc(C(=O)Nc2ccc3[nH]ccc3c2)o1 [Compound 207] ? 1236

Item under review: COc1cc(OC)c(NC(=O)c2ccc(Cc3cc4c(cc3OC)C(C)(C)CCC4(C)C)o2)c(OC)c1 [Compound 169] . Reported Rat male pmol/min/mg 1 μM? 3320

# input molecule: COc1cc(C)c(Cl)c(C)c1Cc1ccc(C(=O)Nc2c(OC)cccc2OC)o1 [Compound 233] ; wanted: its Rat male pmol/min/mg 1 μM 2988

What value of measured Rat male pmol/min/mg 1 μM is listed for Cc1cc2c(cc1Cc1ccc(C(=O)NCc3cccc4ccccc34)o1)C(C)(C)CCC2(C)C [Compound 95] ? 3356
